Source listed as the supplement of paper PMC6555819.

Test system: THRa homodimer (NR concentration 90 nM)
method summary: PBM binding z-score (relative to random genomic background probes); higher = stronger binding; sequences stand for … in GC…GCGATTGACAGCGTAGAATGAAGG
// values below are reported PBM binding z-score
experimental endpoint: PBM binding z-score

> print(dat)
                        input.sequence  endpoint.result
 1  CCGAGTAGGTTATGGGGGATTCAGGCAACGGTGA              1.7
 2  ACTAGCAGGCCAAGGGTCGCTCAAGATTAGTCCG           -0.633
 3  CCTTACGGGTCACGAGGTTCTAGCACGACGAGCG             0.28
 4  CCTACTGGGCCATTCAGAGGTCATTGGTCATATG             1.34
 5  ACTATTAGTTGAGACGAGGGAAACCGATAGGTTG           -0.716
 6  TCGAGTAGGTTAGTCGGGACATTCAGCCAACATA            0.328
 7  TATACATGGTCAAAGGCCAGAGTACGAATGTCGA            -0.46
 8  ATCTCTACGTAAAGTTCAGTGAAAGATCGATAGA           -0.289
 9  CCTATTAGTTGACCATAAGGGCAACCGTAGCTCG             1.29
10  CCGAGTAGGTTATGGAGCATTCAGGCAACGGTGA            0.277
11  GCTTGTAGATCAAGGTTATGAAAGACTAAGCTAA           -0.196
12  AGAACGAGGGCAATGAGTTGTTAGCACGGGTGGC            -0.39
13  CCTAGTTCGTCAGGAGGTCACACACCGGATATGA             2.68
14  CCTACTAGTTGACCATAAGGGCAACCGAAGCTCG             1.28
15  TAAACAGGGTCAAAGGCCAGAGTACGAATGTCGA            0.558
16  AGAATGAGGTTACCAAAGATCAGGGGAACGCTTG            0.753
17  GCTGCTACGTCAGGTTGGTCAGCTAACGGGTACG            -0.55
18  CCGACTGGGGCAGAAAGGTTACTATACCATCCGG           -0.377
19  CGAACGAGGGCATGAGTTGGTAGCAAATGCCGAT           -0.283
20  TCAAGTAGGTTAGGGGCATTCAGAATGGCGTCGA            0.575
21  CCGACTGGGGCAAAGGTTACCATTCTCAGTACGA           -0.246
22  CCTACTGGGCCATCCAGAGGTCATTGATCATATG             1.41
23  GCATATAGGTAATACAAGATGAAAGTCCGATTGT           -0.636
24  AGAATGAGGTTATTAAGATCAGAGAATTGCGGTC            0.584
25  TAGCCTAGGTCATGCGGGCCAGTATGGTGTCGGC             1.07
26  ACAGACAGGTGAGTGAAGGTAAATCAGCTGGACG           -0.577
